# protocol: MRT in CD-1 mouse plasma at 5 mg/kg, ip measured up to 480 mins by LC/ESI-MS/MS analysis
# Type: ADME, organism-based
parameter: MRT (h)
Numeric answer only, unit h assumed.

Example entries and their recorded answers appear below.
**Q:** Reported MRT, compound Cl.Cl.O=c1c2ccccc2oc2c(CN3CCN(CCO)CC3)cccc12 : ____
**A:** 0.672

**Q:** Data request, read-out MRT, for Cl.Cl.O=c1c2cc(Cl)ccc2oc2ccc(CN3CCN(CCOCCO)CC3)cc12
**A:** 2.59

**Q:** What value of measured MRT is listed for CN1CCN(Cc2ccc3oc4ccc(Cl)cc4c(=O)c3c2)CC1 ?
**A:** 2.14

Others:
**Q:** Recorded MRT for CCOC(=O)N1CCN(Cc2cccc3c(=O)c4ccc(OC)cc4oc23)CC1.Cl.Cl , please?
**A:** 1.01

====

# systemUnderTest: 5-hydroxytryptamine receptor 2B (Homo sapiens, UniProt P41595)
# Sequence (P41595 whole entry): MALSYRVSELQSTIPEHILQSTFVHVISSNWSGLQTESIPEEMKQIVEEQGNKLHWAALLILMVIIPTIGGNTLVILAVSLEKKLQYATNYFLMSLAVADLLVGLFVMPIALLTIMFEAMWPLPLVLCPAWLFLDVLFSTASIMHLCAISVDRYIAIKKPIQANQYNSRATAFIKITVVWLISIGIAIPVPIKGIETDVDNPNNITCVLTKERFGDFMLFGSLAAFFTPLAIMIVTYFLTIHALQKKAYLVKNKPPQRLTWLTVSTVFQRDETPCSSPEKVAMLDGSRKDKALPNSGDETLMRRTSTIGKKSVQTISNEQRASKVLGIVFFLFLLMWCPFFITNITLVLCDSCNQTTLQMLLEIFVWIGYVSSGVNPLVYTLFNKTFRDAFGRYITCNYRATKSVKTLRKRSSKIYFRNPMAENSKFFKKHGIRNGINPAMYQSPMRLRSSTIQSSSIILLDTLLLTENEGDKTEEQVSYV
# protocol: Displacement of [125I](+/-)DOI from recombinant human 5-HT2B receptor after 60 mins by radiometric scintillation analysis
parameter: Ki
Could you give the number and then its unit, please?

**Q:** Need Ki of Cl.Cl.O=c1c2cc(Cl)ccc2oc2ccc(CN3CCN(CCOCCO)CC3)cc12 , thanks.
**A:** 2900 nM

====

Reported half-life values for the following molecules.
# protocol: Terminal half life in CD-1 mouse plasma at 5 mg/kg, ip measured up to 480 mins by LC/ESI-MS/MS analysis
# Format: ADME, organism-based
# conditionDetails: read-out: beta t1/2
Reply numerically in h, unit not repeated.

Study these solved cases before continuing.
**Q:** Dear colleague, I am looking for the recorded half-life of the following molecule: Cl.Cl.O=c1c2ccccc2oc2c(CN3CCN(CCO)CC3)cccc12
**A:** 0.805

**Q:** For CCOC(=O)N1CCN(Cc2cccc3c(=O)c4ccc(OC)cc4oc23)CC1.Cl.Cl , what is its reported half-life?
**A:** 3.06

**Q:** Give the measured half-life of Cl.Cl.O=c1c2cc(Cl)ccc2oc2ccc(CN3CCN(CCOCCO)CC3)cc12 .
**A:** 2.89

Now let's try a different one.
**Q:** For the molecule CN1CCN(Cc2ccc3oc4ccc(Cl)cc4c(=O)c3c2)CC1 , what half-life is on record?
**A:** 2.11

====

# protocol: AUC (0 to t) in CD-1 mouse plasma at 5 mg/kg, ip measured up to 480 mins by LC/ESI-MS/MS analysis
# Type: ADME, organism-based
# Set-up: dose 5 mg/kg, time < 8 hr, route intraperitoneal
The compounds listed here are annotated with their AUC(0-t) at 8 h.
I only need the number, in ng·h/mL, no unit after it.

**Q:** Bench note: what AUC(0-t) at 8 h did CN1CCN(Cc2ccc3oc4ccc(Cl)cc4c(=O)c3c2)CC1 show?
**A:** 334

**Q:** What measured AUC(0-t) at 8 h goes with Cl.Cl.O=c1c2cc(Cl)ccc2oc2ccc(CN3CCN(CCOCCO)CC3)cc12 ?
**A:** 5490

**Q:** Requested field: AUC(0-t) at 8 h. Item: CCOC(=O)N1CCN(Cc2cccc3c(=O)c4ccc(OC)cc4oc23)CC1.Cl.Cl
**A:** 481

Now consider a different compound.
**Q:** // AUC(0-t) at 8 h lookup, key: Cl.Cl.O=c1c2ccccc2oc2c(CN3CCN(CCO)CC3)cccc12
**A:** 215

====

# systemUnderTest: 5-hydroxytryptamine receptor 2A (Homo sapiens, UniProt P28223)
# Sequence (P28223 whole entry): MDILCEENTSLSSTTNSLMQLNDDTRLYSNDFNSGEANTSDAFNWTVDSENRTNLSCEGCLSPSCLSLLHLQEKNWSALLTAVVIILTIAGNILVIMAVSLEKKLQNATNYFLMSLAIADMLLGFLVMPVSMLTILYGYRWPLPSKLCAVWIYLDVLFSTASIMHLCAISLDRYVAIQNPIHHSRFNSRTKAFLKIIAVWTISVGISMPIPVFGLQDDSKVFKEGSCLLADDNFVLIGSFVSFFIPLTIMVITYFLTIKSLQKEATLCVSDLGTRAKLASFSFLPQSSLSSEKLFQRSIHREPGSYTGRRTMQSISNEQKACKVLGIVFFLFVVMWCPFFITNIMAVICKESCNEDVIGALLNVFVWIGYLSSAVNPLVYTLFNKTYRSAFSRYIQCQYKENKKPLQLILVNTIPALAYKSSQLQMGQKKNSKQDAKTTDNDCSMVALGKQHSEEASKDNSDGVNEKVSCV
# protocol: Displacement of [3H]ketanserin from recombinant human 5-HT2A receptor after 60 mins by radiometric scintillation analysis
parameter: pKi
As a rule, pKi stands for the negative log10 of the concentration, concentration in M.

**Q:** Fill in the blank: the reported pKi of Cl.Cl.O=c1c2cc(Cl)ccc2oc2ccc(CN3CCN(CCOCCO)CC3)cc12 is ____.
**A:** 5.69

====

# systemUnderTest: L-type calcium channel (verapamil binding site) (Homo sapiens, UniProt O60840+Q01668+Q13698+Q13936)
# protocol: Displacement of [3H] Diltiazem from human L-type calcium channel verapamil binding site at 10 uM after 20 hrs by scintillation analysis relative to control
# Type: protein assay
# conditionDetails: probe [3H] Diltiazem
parameter: inhibition at 20 h, 10 µM
Don't forget the unit after the number, please.

**Q:** # lookup: inhibition at 20 h, 10 µM of Cl.Cl.O=c1c2cc(Cl)ccc2oc2ccc(CN3CCN(CCOCCO)CC3)cc12
**A:** 42.2%

====

# protocol: Mutagenicity in Salmonella typhimurium TA100 at 50 ug/plate preincubated for 20 mins followed by addition of top agar and measured after 48 hrs by Ames test
# Format: toxicity
# conditionDetails: salmonella enterica subsp. enterica serovar typhimurium
parameter: Activity_index
Just the number.

**Q:** What does the record list as Activity_index for Cl.Cl.O=c1c2cc(Cl)ccc2oc2ccc(CN3CCN(CCOCCO)CC3)cc12 ?
**A:** 0.64

**Q:** Recorded Activity_index of CN1CCN(Cc2ccc3oc4ccc(Cl)cc4c(=O)c3c2)CC1 , please.
**A:** 0.43

More entries:
**Q:** Name the recorded Activity_index for CCOC(=O)N1CCN(Cc2cccc3c(=O)c4ccc(OC)cc4oc23)CC1.Cl.Cl .
**A:** 0.61

**Q:** # query: Activity_index of entry Cl.Cl.O=c1c2ccccc2oc2c(CN3CCN(CCO)CC3)cccc12
**A:** 0.79

====

Recorded measurements of Vd/F, one per entry
# protocol: Apparent volume of distribution in CD-1 mouse plasma at 5 mg/kg, ip measured up to 480 mins by LC/ESI-MS/MS analysis
# Assay type: ADME, organism-based
Quick reminder: number only, in L/kg, skip the unit.

Worked examples, 3 compounds total:
**Q:** Item under review: Cl.Cl.O=c1c2ccccc2oc2c(CN3CCN(CCO)CC3)cccc12 . Reported Vd/F?
**A:** 26.9

**Q:** Report Vd/F for CCOC(=O)N1CCN(Cc2cccc3c(=O)c4ccc(OC)cc4oc23)CC1.Cl.Cl please.
**A:** 43.8

**Q:** Can you look up the measured Vd/F of Cl.Cl.O=c1c2cc(Cl)ccc2oc2ccc(CN3CCN(CCOCCO)CC3)cc12 for me?
**A:** 3.06

We now examine a further compound.
**Q:** Quick one: Vd/F of CN1CCN(Cc2ccc3oc4ccc(Cl)cc4c(=O)c3c2)CC1 ?
**A:** 41.3

====

# protocol: Tmax in CD-1 mouse brain at 5 mg/kg, ip measured up to 480 mins by LC/ESI-MS/MS analysis
# Format: ADME, organism-based
parameter: Tmax (min)
Could you give me the number in min? Just the number is fine.

Here are 3 compounds together with their reported answers.
**Q:** Tell me the measured Tmax of Cl.Cl.O=c1c2cc(Cl)ccc2oc2ccc(CN3CCN(CCOCCO)CC3)cc12 , please.
**A:** 30

**Q:** Name the recorded Tmax for CCOC(=O)N1CCN(Cc2cccc3c(=O)c4ccc(OC)cc4oc23)CC1.Cl.Cl .
**A:** 30

**Q:** // returns reported Tmax for input Cl.Cl.O=c1c2ccccc2oc2c(CN3CCN(CCO)CC3)cccc12
**A:** 15

Continue with the compound presented below.
**Q:** Which measured Tmax value corresponds to CN1CCN(Cc2ccc3oc4ccc(Cl)cc4c(=O)c3c2)CC1 ?
**A:** 30

====

# protocol: Mutagenicity in Salmonella typhimurium TA102 at 5 ug/plate preincubated for 20 mins followed by addition of top agar and measured after 48 hrs by Ames test
# Format: toxicity
# conditionDetails: salmonella enterica subsp. enterica serovar typhimurium
parameter: Activity_index
Answer with a bare number; do not write a unit.

Sample records with Activity_index:
**Q:** I have this molecule here, Cl.Cl.O=c1c2cc(Cl)ccc2oc2ccc(CN3CCN(CCOCCO)CC3)cc12 , and I need its recorded Activity_index.
**A:** 0.93

**Q:** // query Activity_index value for entry CCOC(=O)N1CCN(Cc2cccc3c(=O)c4ccc(OC)cc4oc23)CC1.Cl.Cl
**A:** 0.82

**Q:** What value of measured Activity_index is listed for Cl.Cl.O=c1c2ccccc2oc2c(CN3CCN(CCO)CC3)cccc12 ?
**A:** 0.74

New cases:
**Q:** Given CN1CCN(Cc2ccc3oc4ccc(Cl)cc4c(=O)c3c2)CC1 , state its recorded Activity_index.
**A:** 1.04

====

# protocol: AUC (0 to total) in CD-1 mouse brain at 5 mg/kg, ip measured up to 480 mins by LC/ESI-MS/MS analysis
# Type: ADME, organism-based
# conditionDetails: in vivo, 8 h
parameter: AUCt

Reference set (3 entries):
**Q:** Any idea what its AUCt is? The molecule is Cl.Cl.O=c1c2cc(Cl)ccc2oc2ccc(CN3CCN(CCOCCO)CC3)cc12
**A:** 3227321 ng·min/g

**Q:** AUCt lookup needed for CN1CCN(Cc2ccc3oc4ccc(Cl)cc4c(=O)c3c2)CC1 , thanks.
**A:** 633023 ng·min/g

**Q:** Which AUCt is listed for CCOC(=O)N1CCN(Cc2cccc3c(=O)c4ccc(OC)cc4oc23)CC1.Cl.Cl ?
**A:** 82715 ng·min/g

Please look at the following molecule next.
**Q:** Looking for the measured AUCt of Cl.Cl.O=c1c2ccccc2oc2c(CN3CCN(CCO)CC3)cccc12 , can you help?
**A:** 62578 ng·min/g
